Answer each item with its documented apparent Kd (screen).
Target: T1, TNFR1 (Homo sapiens, UniProt P19438)
T1 chain: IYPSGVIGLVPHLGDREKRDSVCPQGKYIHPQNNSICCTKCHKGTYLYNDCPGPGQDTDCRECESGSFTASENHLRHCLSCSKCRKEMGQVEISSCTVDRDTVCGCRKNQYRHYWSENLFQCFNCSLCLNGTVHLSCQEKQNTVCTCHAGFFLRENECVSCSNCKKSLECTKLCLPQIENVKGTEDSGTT
Assay: yeast display SC50
One number for each entry, in nM.

1) F63I (designed binder) MTLQELLREEALRRAEAEAFRYALELLAEKFPEQKEYLLDLAEEIESQIRSLSGVDVEDVRKILDKEWAWVKELLAEHPAELAEVEAARAARLAELRAEVEAKVAA ... 1.54

input: Please look at this binder and report its apparent Kd (screen): I45R (designed binder) MTLQELLREEALRRAEAEAFRYALELLAEKFPEQKEYLLDLAEERESQIRSLSGVDVEDVRKFLDKEWAWVKELLAEHPAELAEVEAARAARLAELRAEVEAKVAA
output: 11.4
